The following compounds are listed with their measured growth values.
- Test system: T-47D breast
- assay_protocol: NCI-60 one-dose screen, 48 h (100 = growth as untreated, 0 = no growth, -100 = all killed)
- measurement_context: 10 µM unless noted
Compounds without any hit were thinned out: in the full panel of roughly 83,000, 20% have a hit.
measured_endpoint: growth (%)

> print(dat)
                    structure.smiles.string  meas.value
1  O=C(/C(=C/c1ccc([N+](=O)[O-])cc1)SCc1ccc(F)cc1)c1ccc(Cl)cc1        49.3
2       O=C(Nc1cc(=O)[nH]c(=O)[nH]1)C(Cl)Cl        91.4
3  COC(=O)/C=C1\SC(=Nc2ccc(C(F)(F)F)cc2)N(CCc2c[nH]c3ccccc23)C1=O       -40.7
